Molecular target: T1, histidine-labeled human 4-1BB protein (human, UniProt Q07011 24-186)
T1 construct: also called Human 4-1BB protein antigen (histidine-labeled); human 4-1BB protein and his tag (Acrobiosystem, #41B-H5227); not shown: histidine tag
T1 sequence (Q07011 24-186): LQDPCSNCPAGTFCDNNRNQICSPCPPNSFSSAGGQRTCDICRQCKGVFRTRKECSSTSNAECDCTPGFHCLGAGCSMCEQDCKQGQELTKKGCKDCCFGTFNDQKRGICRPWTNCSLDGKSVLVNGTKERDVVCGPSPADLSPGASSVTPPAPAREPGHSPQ
Experiment: BLI Octet RED96, AHC sensor, his-tagged antigen
Please provide measured Response for the entries that follow.
No unit in the answer, please; the number alone is enough.

Task: Given the binder PR001759 (antibody, human IgG1, V domains shown, HCAb, heavy chain only, human IgG1 Fc; also called 1016P0010D7) VH: EVQLLESGGGLVQPGGSLRLSCAASGFTFSSYAMSWFRQPPETGLQWVSSIGGSGGDTYYADSVKGRFTISRDNSKNTLYLQMNSLRAEDTAVYYCAKEGSNGTDDNYYDVDVWGQGTTVTVSS , write its reported Response.
Result: 0.284

Task: Given the binder PR001830 (antibody, human IgG1, V domains shown, HCAb, heavy chain only, human IgG1 Fc; also called 1016P0014G8) VH: EVQLLESGGGLVQPGGSLRLSCTASGFTFSNYAMSWVRQAPEKGLEWVSSISGSGGSTFYADSVKGRFTISRDNSKNTLYLQMNSLRAEDTAVYFCAKEGSSETDDHYYNVDVWGQGTTVTVSS , write its reported Response.
Result: 0.307

Task: Given the binder PR001836 (antibody, human IgG1, V domains shown, HCAb, heavy chain only, human IgG1 Fc; also called 1016P0020G4) VH: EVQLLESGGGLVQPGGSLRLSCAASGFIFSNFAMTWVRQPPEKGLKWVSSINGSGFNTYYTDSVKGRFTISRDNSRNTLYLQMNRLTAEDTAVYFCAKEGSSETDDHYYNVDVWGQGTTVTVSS , write its reported Response.
Result: 0.294

Task: Given the binder PR001833 (antibody, human IgG1, V domains shown, HCAb, heavy chain only, human IgG1 Fc; also called 1016P0016F8) VH: EVQLLESGGGLVQPGGSLRLSCAASGFTFSSYAMSWVRQAPEKGLEWVSSISGSGGSTFYADSVKGRFTISRDNSKNTLYLQMNSLRAEDTAVYFCAKEGATETDDYHFNTDVWGQGTTVTVSS , write its reported Response.
Result: 0.311

Task: Given the binder PR001758 (antibody, human IgG1, V domains shown, HCAb, heavy chain only, human IgG1 Fc; also called 1016P0010B11) VH: EVQLLESGGGLVQLGGSLRLSCAASGFTFSRYAMTWVRQAPEKGLEWVSSISGSGDDTYYGDSVKGRFTISRDNSQNTVYLQMNSLRAEDTAVYFCAKEKAGTTGDYYYNVDVWGQGTTVTVSS , write its reported Response.
Result: 0.326

Task: Given the binder PR001760 (antibody, human IgG1, V domains shown, HCAb, heavy chain only, human IgG1 Fc; also called 1016P0011G10) VH: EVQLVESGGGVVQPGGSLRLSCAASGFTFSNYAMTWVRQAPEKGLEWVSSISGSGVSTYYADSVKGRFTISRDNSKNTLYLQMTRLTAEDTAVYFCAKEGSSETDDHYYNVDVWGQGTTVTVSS , write its reported Response.
Result: 0.267

Task: Given the binder PR001838 (antibody, human IgG1, V domains shown, HCAb, heavy chain only, human IgG1 Fc; also called 1016P0030B2) VH: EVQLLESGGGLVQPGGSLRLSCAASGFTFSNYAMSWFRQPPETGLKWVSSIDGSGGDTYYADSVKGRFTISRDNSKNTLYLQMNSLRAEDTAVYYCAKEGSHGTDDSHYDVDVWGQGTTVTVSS , write its reported Response.
Result: 0.309

Task: Given the binder PR001840 (antibody, human IgG1, V domains shown, HCAb, heavy chain only, human IgG1 Fc; also called 1016P0037D2) VH: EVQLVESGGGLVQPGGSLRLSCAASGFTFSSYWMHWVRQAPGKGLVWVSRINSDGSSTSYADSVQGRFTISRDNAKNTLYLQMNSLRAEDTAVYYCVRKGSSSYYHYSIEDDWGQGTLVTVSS , write its reported Response.
Result: 0.224
